- Test Name: Plasma pharmacokinetics (LC/MS-MS)
- Assay type: in vivo, human
- Details: human, plasma, oral, 400 mg, Cohort 11 (400 mg BID 5/2); Cycle 1, Day 1; read-out: Mean AUC24
Measured Property: AUC (ng·h/mL)
Form entry: value (ng·h/mL) — number only.

Incoming: Suppose we examine the molecule CC(C)(C)c1ccc(Oc2ccc(N)cn2)cc1 ; what AUC value has been reported?
Outgoing: 14900

---

- Test Name: Plasma pharmacokinetics (LC/MS-MS)
- Type: in vivo, human
- Details: human, plasma, oral, 500 mg, Cohort 12 (500 mg BID 5/2); Cycle 1, Day 1; read-out: Mean AUC24
Measured Property: AUC (ng·h/mL)
// units = ng·h/mL; emit number, no label

Incoming: // returns reported AUC for input CC(C)(C)c1ccc(Oc2ccc(N)cn2)cc1
Outgoing: 14200

---

- Test Name: Plasma pharmacokinetics (LC/MS-MS)
- Assay type: in vivo, human
- Details: human, plasma, oral, 26 mg, Cohort 2 (26 mg); Cycle 1, Day 1; read-out: Mean AUC24
Measured Property: AUC
Please answer in the form of a number followed by its unit of measurement.

Incoming: Entry CC(C)(C)c1ccc(Oc2ccc(N)cn2)cc1 [CB-103] has what AUC?
Outgoing: 220 ng·h/mL

---

- Test Name: Plasma pharmacokinetics (LC/MS-MS)
- Type: in vivo, human
- Details: human, plasma, oral, cycle 1 day 1; entire sampled cohort; read-out: Mean Cmax
- Procedure: Plasma pharmacokinetics were assessed for CB-103 via blood samples taken on days 1 (predose, 0.5, 1, 2, 4, 6, 8 hours postdose ± 5 minutes, and 12 hours postdose ± 15 minutes), 2 (24-hour post-day 1, predose), 3 (predose), 8 (predose, 0.5, 1, 2, 4, 6, and 8 hour postdose ± 5 minutes), 9 (24-hour post-day 8, predose), 15, and 22 (predose, and 1 hour postdose) in cycle 1. […]
Measured Property: Cmax (ng/mL)
Express your answer in ng/mL, writing the number without its unit.

Incoming: Need Cmax of CC(C)(C)c1ccc(Oc2ccc(N)cn2)cc1 , thanks.
Outgoing: 731

---

- Test Name: Plasma pharmacokinetics (LC/MS-MS)
- Type: in vivo, human
- Details: human, plasma, oral, 217 mg, Cohort 6 (217 mg); Cycle 1, Day 1; read-out: Mean AUC24
Measured Property: AUC (ng·h/mL)
Give your result in ng·h/mL as a bare value.

Incoming: Field request: AUC | item: CC(C)(C)c1ccc(Oc2ccc(N)cn2)cc1 [CB-103]
Outgoing: 2620

---

- Test Name: Plasma pharmacokinetics (LC/MS-MS)
- Format: in vivo, human
- Details: human, plasma, oral, 500 mg, Cohort 12 (500 mg BID 5/2); Cycle 1, Day 8; read-out: Mean Cmax
Measured Property: Cmax (ng/mL)
Express it in ng/mL; write the number only.

Incoming: Need Cmax, item CC(C)(C)c1ccc(Oc2ccc(N)cn2)cc1 [CB-103]
Outgoing: 2760

---

- Test Name: Plasma pharmacokinetics (LC/MS-MS)
- Format: in vivo, human
- Details: human, plasma, oral, 522 mg, Cohort 8 (522 mg); Cycle 1, Day 1; read-out: Mean Cmax
Measured Property: Cmax (ng/mL)
Please state the figure in ng/mL; there is no need to write the unit.

Incoming: If you can, please state the reported Cmax value of CC(C)(C)c1ccc(Oc2ccc(N)cn2)cc1 [CB-103] .
Outgoing: 1230
